# system_name: acetylcholine receptor
# assay_text: SPR, peptide at 10 uM
Task for the reader: assign each of the following binders its reported Binding affinity.
Provide only the numeric value, understood in RU.

Please fill in: Binding affinity reported for KKKVRR [6mer-2-1108] = 36

Sample KACVKK [6mer-2-1179] ; Binding affinity observed: 34

Data point: KMKPKK [6mer-2-1168] ; Binding affinity = 41

Looking up KFTIRR [6mer-2-1170] , I found its Binding affinity recorded as 25

The reported value for RDAFKK [6mer-2-1125] in terms of Binding affinity is 30

Binding affinity reading for KFWVRR [6mer-2-1184] : 22

Recorded Binding affinity (binder RHNDKR [6mer-2-1182] ): 30

Value of measured Binding affinity for the entry REDEKK [6mer-2-1111] : 23

# Binding affinity (binder: KICERK [6mer-2-1169] ) is 21

Memo: KCCNKK [6mer-2-1173] , reported Binding affinity: 38

According to the records, this binder RYPVRK [6mer-2-1151] displays Binding affinity of 43

So, RYSKRR [6mer-2-1175] ? Its Binding affinity was 34

Entry RYNHKR [6mer-2-1164] — recorded Binding affinity = 33

Binding affinity for RIKNRR [6mer-2-1145] is 23

// Binding affinity value for RKTWRK [6mer-2-1124] : 39

get_value(item= KTTVRK [6mer-2-1178] , readout=Binding affinity) returns 30

Documented Binding affinity of REDWRR [6mer-2-1099] : 21

# binder KCTVRK [6mer-2-1119] ; its Binding affinity = 39

Record RYTKKR [6mer-2-1104] . Reported Binding affinity: 38

# Binding affinity of KYCDRK [6mer-2-1194] = 35

// field: Binding affinity; key: KAKAKK [6mer-2-1139] ; value = 39

Sample RDMMKK [6mer-2-1120] ; Binding affinity observed: 28

Reported Binding affinity of REKIRR [6mer-2-1193] : 43

Just so you know, measured Binding affinity for KEKFRR [6mer-2-1186] came out at 27

Please fill in: Binding affinity reported for KMPARR [6mer-2-1171] = 40

Data point: KNCMRK [6mer-2-1128] ; Binding affinity = 36

Field Binding affinity (entry KMKKKR [6mer-2-1136] ) reads 36

Briefly, Binding affinity measured for KTDVKK [6mer-2-1150] : 42

In plain terms, KTAPKK [6mer-2-1189] has a documented Binding affinity of 40

Documented Binding affinity of RFEDRK [6mer-2-1144] : 39

Value of Binding affinity reported for the binder RFDGRR [6mer-2-1118] is 42

For reference, reported Binding affinity for KNCERR [6mer-2-1172] stands at 36

binder RAANRR [6mer-2-1180] , Binding affinity observed: 34
